Target: Squalene synthase (Rattus norvegicus)
Sequence (Q02769 whole entry): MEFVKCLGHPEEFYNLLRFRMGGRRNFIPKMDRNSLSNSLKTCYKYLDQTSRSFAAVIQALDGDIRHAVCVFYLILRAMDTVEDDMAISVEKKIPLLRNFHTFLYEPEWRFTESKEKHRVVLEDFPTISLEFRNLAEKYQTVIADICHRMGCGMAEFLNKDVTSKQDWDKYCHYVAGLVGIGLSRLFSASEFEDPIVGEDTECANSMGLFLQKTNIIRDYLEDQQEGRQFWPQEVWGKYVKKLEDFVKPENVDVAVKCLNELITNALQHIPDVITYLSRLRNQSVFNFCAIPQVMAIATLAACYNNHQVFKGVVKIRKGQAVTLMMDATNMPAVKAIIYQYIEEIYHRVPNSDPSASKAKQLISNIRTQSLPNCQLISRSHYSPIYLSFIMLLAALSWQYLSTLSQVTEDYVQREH
Listing: IC50 of selected compounds
Answer by giving the amount and then stating its unit.

IC50 lookup needed for C=C(CC[C@@]12CC[C@@](C(=O)O)(O1)[C@](O)(C(=O)O)[C@@H](C(=O)O)O2)[C@@H](OC(C)=O)[C@H](C)Cc1ccccc1 , thanks. 57 nM

Need IC50, item C=C(CC[C@@]12O[C@H](C(=O)O)[C@@](O)(C(=O)O)[C@@](C(=O)O)(COC1=O)O2)[C@@H](OC(C)=O)[C@H](C)Cc1ccccc1 200 nM
